Test summary: Plasma protein binding, mouse plasma
Type: in vitro ADME
Experimental conditions: mouse, plasma, mouse plasma protein binding; read-out: PPB (m) (converted)
Endpoint name: fraction unbound at 4 h, 100 µM

I = Cc1nc(-c2ccco2)c2ccn([C@@H]3O[C@H](COP(=O)(O)CP(=O)(O)O)[C@@H](O)[C@H]3O)c2n1 [18E.1]
II = O=P(O)(O)CP(=O)(O)OC[C@H]1O[C@@H](n2ccc3c(-c4cc(Br)c5ccccc5c4F)nc(Cl)nc32)[C@H](O)[C@@H]1O [7B.26]
III = Nc1nc(-c2cccc3ccccc23)c2ccn([C@@H]3O[C@H](COP(=O)(O)CP(=O)(O)O)[C@@H](O)[C@H]3O)c2n1 [11C.6]
IV = O=P(O)(O)CP(=O)(O)OC[C@H]1O[C@@H](n2ccc3c(-c4cccc5ccccc45)ncnc32)[C@@H](F)[C@@H]1O [34A.6]
For the compounds shown above, give the order from largest fraction unbound at 4 h, 100 µM to smallest. Would you mind listing the labels in the order asked for?
I, III, IV, II
(I: 0.816, III: 0.564, IV: 0.065, II: 0.016)
